APOE RNA (% UTC) 13 nM values for the substances below.
- Test system: human APOE RNA
- assay comment: Dose-dependent reduction of human APOE RNA in HepG2 cells, electroporation, 20,000 cells per well, normalized to PPIA (Example 4, Table 11)
- Format: cell-based
- protocol conditions: HepG2 cells, 20,000 cells per well, approximately 24 hours, PPIA-normalized, 13 nM
Strand notation (5' to 3'): a small letter for the sugar, then the base; units joined by * are phosphorothioate-linked, units joined directly phosphodiester-linked; [ ] holds rarer units or linkages, { } end groups; capitals alone tell only the bases. [ms] = mesyl phosphoramidate linkage; e = 2'-O-(2-methoxyethyl) (MOE); k = constrained ethyl (cEt); [5mC] = 5-methylcytosine; d = 2'-deoxy (DNA)
Reply numerically in % UTC, unit not repeated.

Known results for substances:
- substance: "Aes^mCeoTeoTesGesGksTdsGdzAdzAdzTds^mCdsTdsTdsTdsAdzTksTksAesAe (eA*e[5mC]eTeT*eG*kG*dT*dG[ms]dA[ms]dA[ms]dT*d[5mC]*dT*dT*dT*dA[ms]kT*kT*eA*eA) [Compound No. 1757576]"
  reported: 74
- substance: "TezTeoGeoGksTdsGdzAdzAdzTds^mCdsTdsTdsTdsAdzTksTksAesAesAes^mCe (antisense eT[ms]eTeGkG*dT*dG[ms]dA[ms]dA[ms]dT*d[5mC]*dT*dT*dT*dA[ms]kT*kT*eA*eA*eA*e[5mC]) [Compound No. 1809814]"
  reported: 95
- substance: "^mCksTksTksGdzGdzTdzGdzAdzAdzTds^mCdsTdsTdsTdsAdsTdsTksAksAdzAk (antisense k[5mC]*kT*kT*dG[ms]dG[ms]dT[ms]dG[ms]dA[ms]dA[ms]dT*d[5mC]*dT*dT*dT*dA*dT*kT*kA*dA[ms]kA) [Compound No. 1785602]"
  reported: 85

Kindly note the recorded APOE RNA (% UTC) 13 nM for Aks^mCeoTeoTesGesGksTdsGdzAdzAdzTds^mCdsTdsTdsTdsAdzTksTksAesAe (kA*e[5mC]eTeT*eG*kG*dT*dG[ms]dA[ms]dA[ms]dT*d[5mC]*dT*dT*dT*dA[ms]kT*kT*eA*eA) [Compound No. 1809635] , which is 87

Attribution: patent US20250353873A1
